Overview of reported pIC50 across a group of compounds:
testSystem: Heme
testSummary: Binding affinity to heme assessed as inhibition of beta-haemozoin formation by UV-vis spectra analysis
// field semantics: pIC50 = negative decimal log of concentration (mol/L)

# annotated cases, reported pIC50 shown
INSERT INTO assay_data (compoundstring, property, resultnumber) VALUES
  ('O=C1/C(=C/C=C/c2ccccc2)NC(=S)N1CCCNc1ccnc2cc(Cl)ccc12', 'pIC50', 4.70),
  ('O=C1/C(=C/C=C/c2ccccc2)NC(=S)N1CCNc1ccnc2cc(Cl)ccc12', 'pIC50', 4.86);

pIC50 lookup needed for "O=C1/C(=C/C=C/c2ccccc2)NC(=S)N1CCCCNc1ccnc2cc(Cl)ccc12" , thanks. 4.55
